assay_details: Baboon PET study: plasma analysis / input function of parent compound
Assay type: in vivo
condition_label: baboons, i.v., mean ± SD of four experiments
Mark each entry Condition met if its Vbol (initial distribution volume of parent compound) sits below 8 L, and Condition not met for all others.

Field: example entries. Status: answers known.
• CN([11CH3])Cc1ccccc1Sc1ccc(CF)cc1N [[^11C]AFM] = Condition not met
• [11CH3]Sc1ccc([C@H]2CN3CCC[C@H]3c3ccccc32)cc1 [[^11C]McN 5652] = Condition met
• CN(C)Cc1ccccc1Sc1ccc(Br)cc1N [[^11C]DAPA] = Condition not met

Moving on to the next compound.
Inquiry: Hello, is Vbol (initial distribution volume of parent compound) of the following compound strictly smaller than 8 L? CN(C)Cc1ccccc1Sc1ccc(C#N)cc1N [[^11C]DASB]
Reply text: Condition not met

---

Tested on: SERT
assay_details: Baboon PET imaging: brain uptake, kinetic analysis and SERT parameters
Assay type: in vivo
condition_label: one-tissue compartment model; baboons, mean ± SD of four experiments
Below: a set of entries, each annotated with reported K1 Occipital Cortex.
Reply with just the number (in mL/g/min).

Examples with answers:
- CN(C)Cc1ccccc1Sc1ccc(Br)cc1N [[^11C]DAPA]: 0.83
- CN(C)Cc1ccccc1Sc1ccc(C#N)cc1N [[^11C]DASB]: 1.15
- CN([11CH3])Cc1ccccc1Sc1ccc(CF)cc1N [[^11C]AFM]: 1.35

The value of K1 Occipital Cortex measured for the molecule [11CH3]Sc1ccc([C@H]2CN3CCC[C@H]3c3ccccc32)cc1 [[^11C]McN 5652] turned out to be 0.95

The value of K1 Occipital Cortex measured for the molecule CN(C)Cc1ccccc1Sc1ccc(I)cc1N [[^11C]ADAM] turned out to be 1.12

---

assay_details: Biodistribution of labeled radioligands in male Sprague-Dawley rats
Type: in vivo
condition_label: 60 min post-injection; mean ± SD, n = 3
measurement_name: % ID/g Frontal Ctx. (% ID/g)
Reply with just the number (in % ID/g).

Examples with answers:
- CN(C)Cc1ccccc1Sc1ccc(CC[18F])cc1N [[^18F]AFE]: 0.19
- CN(C)Cc1ccccc1Sc1ccc(CCF)cc1N [[^11C]AFE]: 0.19
- CN(C)Cc1ccccc1Sc1ccc(C[18F])cc1N [[^18F]AFM]: 0.71
- CN(C)Cc1ccccc1Sc1ccc([18F])cc1N [[^18F]AFA]: 0.28
- CN([11CH3])Cc1ccccc1Sc1ccc(CF)cc1N [[^11C]AFM]: 1.37
- Cc1ccc(Sc2ccccc2CN(C)[11CH3])c(N)c1 [[^11C]MADAM]: 0.89

Would you kindly look at the next entry?
The value of % ID/g Frontal Ctx. measured for the molecule CN([11CH3])Cc1ccccc1Sc1ccc(F)cc1N [[^11C]AFA] turned out to be 0.29

---

Below: a set of entries, each annotated with reported Regional uptake peak time Hippocampus.
System: SERT
assay_details: Baboon PET imaging: brain uptake, kinetic analysis and SERT parameters
Format: in vivo
condition_label: baboons, mean ± SD of four experiments
Experimental: PET imaging protocol: PET experiments (n=20) were performed at Columbia University. Two adult male baboons (baboon A and B) were studied twice with each of the 5 radioligands (4 experiments per radioligand). […] Experiments were performed according to protocols approved by the Columbia-Presbyterian Medical Center Institutional Animal Care and Use Committee. […] Vital signs were monitored every 10 minutes and the temperature was kept constant at 37° C. with heated water blankets. […]
Form entry: enter the amount, then its unit.

* CN(C)Cc1ccccc1Sc1ccc(I)cc1N [[^11C]ADAM] | 46 ± 8 min
* CN(C)Cc1ccccc1Sc1ccc(Br)cc1N [[^11C]DAPA] | 64 ± 15 min
* [11CH3]Sc1ccc([C@H]2CN3CCC[C@H]3c3ccccc32)cc1 [[^11C]McN 5652] | 36 ± 8 min
* CN([11CH3])Cc1ccccc1Sc1ccc(CF)cc1N [[^11C]AFM] | 39 ± 16 min

The value of Regional uptake peak time Hippocampus measured for the compound CN(C)Cc1ccccc1Sc1ccc(C#N)cc1N [[^11C]DASB] turned out to be 22 ± 10 min
